- Test system: NCI/ADR-RES ovarian
- assay.remarks: NCI-60 one-dose screen, 48 h
- measurement.conditions: 10 µM unless noted
This is part of a sample that, as a whole, favours compounds with a hit. Of some 83,000 tested, about 20% had one in any assay. Calls of active or inactive are those of the source. Rule for the calls: active = growth percent below 10; inactive = the rest.
Permitted responses: active, inactive

[Q] Tell me the assay call for `COc1cc(-c2cc(-c3ccc(Nc4ncnc5cc(Cl)ccc45)cc3)nc(N3CCN(C)CC3)n2)cc(OC)c1OC` please.
[A] inactive

[Q] Request: `O=C(c1ccc(F)c(Cl)c1)N1c2ccccc2Sc2ccccc21`
[A] inactive

[Q] Request: COc1ccc(C2=Nc3c(N)ncnc3NC(c3cccc(Nc4ccnc5cc(C(F)(F)F)ccc45)c3)C2)cc1 (centres undefined)
[A] inactive

[Q] Request: `O=C(N/N=C/c1ccc(Cl)cc1Cl)c1ccc2nc(-c3ccc(Cl)cc3)[nH]c2c1`
[A] inactive

[Q] Request: `Cc1ccc(C(=O)c2ccc(CC(=O)N/N=C/c3ccc(O)cc3O)n2C)cc1`
[A] inactive

[Q] Request: `Cc1[nH]c(C(=O)Nc2cccc(OC3CCNCC3)c2)c(Cl)c1Cl`
[A] inactive

[Q] Request: `C/C(=C(\c1ccc(OCCN2CCCCCC2)cc1)c1ccc(OC(=O)Cc2ccccc2)cc1)c1ccc(Cl)cc1`
[A] inactive

[Q] Request: Nc1n[nH]c2ccc([C@@H]3Nc4cc5[nH]ncc5cc4[C@H]4C5CCC(C5)[C@@H]34)cc12 (some centres undefined)
[A] inactive

[Q] Request: `COc1ccc(-c2oc(=O)ccc2-c2cc(OC)c(OC)c(OC)c2)cc1O`
[A] inactive

[Q] Request: `COc1ccc(Cl)cc1Nc1nc(C(F)(F)F)ccc1C(=O)N/N=C/c1ccccc1Cl`
[A] active

[Q] Request: COc1ccc(NC(=O)c2cccc(C3CCc4c(cc(OC)c(OC)c4OC)O3)c2)cc1 (centres undefined)
[A] active

[Q] Request: `C=C1C(=O)O[C@H]2[C@H]1CC/C(CNC(=O)c1cc3ccccc3[nH]1)=C\CC[C@@]1(C)O[C@@H]21`
[A] inactive

[Q] Request: `COc1ccc(/C(C)=C(\c2ccc(OCCN3CCCCCC3)cc2)c2ccc(OC(=O)c3ccccc3)cc2)cc1`
[A] inactive

[Q] Request: `CCCCn1sc(=O)n(Cc2ccc(CNC(=O)OCc3ccc4c(Br)cc(Br)c(O)c4n3)cc2)c1=O`
[A] active

[Q] Request: `O=C(Cn1cc(CN2C(=O)c3ccccc3S2(=O)=O)nn1)Nc1cccc(Cl)c1`
[A] inactive

[Q] Request: O=P(O)(O)OCC1OC(n2cnc3c(NCc4ccccc4)ncnc32)C(O)C1O (centres undefined)
[A] inactive

[Q] Request: `C=NNc1ccccc1`
[A] inactive

[Q] Request: `Cn1c(=O)c2c(nc(NC3=NS(=O)(=O)c4ccccc43)n2Cc2ccccc2)n(C)c1=O`
[A] inactive

[Q] Request: `CC(=O)N(Cc1ccccc1)c1nc2ccc(O)c(CN(C)C)c2s1`
[A] inactive

* * *

- Tested on: PC-3 prostate
- assay.remarks: NCI-60 one-dose screen, 48 h (100 = growth as untreated, 0 = no growth, -100 = all killed)
- measurement.conditions: 10 µM unless noted
Compounds without any hit were thinned out: in the full panel of roughly 83,000, 20% have a hit.
outcome.measure: growth (%)
Give just the numeric value; % need not be written.

[Q] Which growth is listed for `Fc1ccc(CNc2c3ccccc3nc3ccccc23)cc1` ?
[A] 26.9

[Q] Request: `C=CCN=C(N)SCCCCCCSC(N)=NCC=C`
[A] 68.5

[Q] Request: `O=C1/C=C/[C@@H](O)[C@@H]2C[C@@H](O)C[C@H]2/C=C/CCC[C@H](CCOCc2ccccc2)O1`
[A] 16.5

[Q] Request: CCCCCCC(CCCC)COC(=O)c1ccc(Cl)cc1 (centres undefined)
[A] 96.5

[Q] Request: CC12CCC(/C(=C/NNc3ccc([N+](=O)[O-])cc3[N+](=O)[O-])C1=O)C2(C)C (centres undefined)
[A] 59.5

[Q] Request: `Cn1cc(-c2csc(-c3cn(C(=O)OC(C)(C)C)c4ccccc34)n2)c2ccnc(Cl)c21`
[A] 40.5

[Q] Request: `C[C@@H](CO)[C@@H]1CC[C@]2(C(=O)N3CCN(C)CC3)CC[C@]3(C)[C@H](CC[C@@H]4[C@@]5(C)CC[C@H](O)C(C)(C)[C@@H]5CC[C@]43C)[C@@H]12`
[A] 64.1

[Q] Request: `CN(C)c1ccc(/C=C/C(=O)c2ccccc2)cc1`
[A] 71.6

[Q] Request: `COc1cc(-c2nc(NC(C)=O)sc2-c2ccnc(NCCNS(=O)(=O)c3ccccc3)n2)ccc1Cl`
[A] 16.3

[Q] Request: CCN1C(=S)N(CC)C2C1NC(=S)N2/N=C/C=C/c1ccccc1OC (centres undefined)
[A] 33

[Q] Request: COc1ccc(C2C3=C(COC3=O)N(CCO)c3cc4c(cc32)OCCO4)cc1OC (centres undefined)
[A] 23.8

[Q] Request: `CCCCCCCCn1ccc2cc(NC(=O)Cn3cc(CN4CCN(CC)CC4)nn3)ccc21`
[A] 82.6

[Q] Request: `CN(C)c1ccc(C(=NO)c2ccc(N(C)C)cc2)cc1`
[A] 58

[Q] Request: `Cc1cc(F)ccc1S(=O)(=O)Nc1cc(-c2c(O)ccc3ccccc23)c(O)c2ccccc12`
[A] 15.5

[Q] Request: `N#Cc1c(-c2ccccc2)nc2c(c(-c3ccccc3)nn2-c2ccccc2)c1-c1ccc(N2CCOCC2)cc1`
[A] 81.7

[Q] Request: `Oc1c(Cl)cc(Cl)c2ccc(Cn3cc(-c4cccc(C(F)(F)F)c4)nn3)nc12`
[A] 83.1

[Q] Request: `C=CCn1c(SCC(=O)Nc2ccc(C(=O)/C=C/c3ccc(OC)cc3)cc2)nnc1-c1ccccc1`
[A] 67.1

[Q] Request: `COc1ccc(Nc2ncccc2NC(=O)c2cn(Cc3cccc(Oc4ccccc4)c3)nn2)cc1OC`
[A] 67.3

[Q] Request: `Cn1c(=O)c2c(nc(NC3=NS(=O)(=O)c4ccccc43)n2Cc2ccccc2)n(C)c1=O`
[A] 95.4
